# experimental_target: T1, TBD-1 wt
# T1 construct: Fab; the heavy chain entry is VH-CH1; also called wild-type anti-TROP2 Fab (hRS7); TROP2 Fab
# test_description: competition ELISA, peptide vs Fab binding to captured biotin-TROP2
Where no end group is shown, it is not given here.
Quick reference: pIC50 of the listed items.
// field semantics: pIC50 = negative decimal log of concentration (mol/L)

# annotated cases, reported pIC50 shown
> print(dat)
                                     binder  recorded.result
1  EDFCYWYQWPICSD (cysteine pairing not given here; also: biotinylated, site not given here) [Peptide-35]             5.36
2  VDFCYQYGWPICSR (cysteine pairing not given here; also: biotinylated, site not given here) [Peptide-36]             5.29
3  PDFCYMYGWPICDS (cysteine pairing not given here; also: biotinylated, site not given here) [Peptide-32]             5.31

Give the value of pIC50 reported for the following: IDFCMLYNWPICAG (cysteine pairing not given here; also: biotinylated, site not given here) [Peptide-3]
6.37

Give the value of pIC50 reported for the following: VDFCYLYNWPVCSK (cysteine pairing not given here; also: biotinylated, site not given here) [Peptide-37]
5.20
